Listing of entries alongside the reported log10 of IC50.
Test system: A549
Assay: Cytotoxicity against Homo sapiens (human) A549 cells after 24 hr by MTT assay
Format: functional, cell-based
Settings: A549, 24 h
Please be aware that the numbers have been log10-transformed from IC50 in µg/mL.

Molecule	log10 of IC50
CCn1c2ccccc2c2cc(NC(=O)CSC(=S)N3CCN(C)CC3)ccc21	1.54
CCn1c2ccccc2c2cc(NC(=O)CSC(=S)N3CCOCC3)ccc21	1.41
CCn1c2ccccc2c2cc(NC(=O)CSC(=S)N3CCCCC3C)ccc21 (configuration not stated)	1.47
CCn1c2ccccc2c2cc(NC(=O)CSC(=S)N3CCCC3)ccc21	2.29
CCn1c2ccccc2c2cc(NC(=O)CSC(=S)N3CCC(C)CC3)ccc21	2.50

Data request: Please look at this molecule and report its log10 of IC50: CCn1c2ccccc2c2cc(NC(=O)CSC(=S)N3CCCCC3)ccc21
Data returned: 2.25

Data request: Please look at this molecule and report its log10 of IC50: O=C1c2c(O)ccc(O)c2C(=O)c2c(NCCNCCO)ccc(NCCNCCO)c21 [MITOXANTRONE]
Data returned: 1.40

Data request: Please look at this molecule and report its log10 of IC50: CCn1c2ccccc2c2cc(NC(=O)CSC(=S)N3CCN(c4ccccc4)CC3)ccc21
Data returned: 2.29

Data request: Please look at this molecule and report its log10 of IC50: CCn1c2ccccc2c2cc(NC(=O)CSC(=S)N3CCN(CCN(C)C)CC3)ccc21
Data returned: 1.61

Data request: Please look at this molecule and report its log10 of IC50: CCn1c2ccccc2c2cc(NC(=O)CSC(=S)N3CCN(Cc4ccccc4)CC3)ccc21
Data returned: 2.03

Data request: Please look at this molecule and report its log10 of IC50: CCN1CCN(C(=S)SCC(=O)Nc2ccc3c(c2)c2ccccc2n3CC)CC1
Data returned: 1.79

Data request: Please look at this molecule and report its log10 of IC50: CCN(CC)C(=S)SCC(=O)Nc1ccc2c(c1)c1ccccc1n2CC
Data returned: 1.62
